# System Name: human recombinant MC1R (CHO-K1 stable cell line, GenScript) (human, UniProt Q01726 1-317)
# Sequence (Q01726 whole entry): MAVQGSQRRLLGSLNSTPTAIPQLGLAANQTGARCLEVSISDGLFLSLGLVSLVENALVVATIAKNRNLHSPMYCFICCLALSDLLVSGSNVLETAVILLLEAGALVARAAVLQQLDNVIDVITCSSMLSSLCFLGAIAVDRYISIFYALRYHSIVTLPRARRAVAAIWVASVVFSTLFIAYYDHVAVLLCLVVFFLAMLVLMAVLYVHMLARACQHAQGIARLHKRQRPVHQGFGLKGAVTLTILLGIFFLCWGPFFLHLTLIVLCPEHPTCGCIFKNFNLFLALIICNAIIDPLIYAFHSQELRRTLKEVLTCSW
# Procedure Details: cell-based or functional assay
Positions of bridges follow the written chain, without caps; N, C: chain ends. Non-standard residues stand in square brackets, D forms with d. *: point of attachment. Lys(N3) = [N-]=[N+]=NCCCC[C@H](N)C(=O)O; Orn(N3) = [N-]=[N+]=NCCC[C@H](N)C(=O)O; Acetyl(4-pyridyl) = O=C(Cc1ccncc1)*; NMeR = CN[C@@H](CCCNC(=N)N)C(=O)O; NMeF = CN[C@@H](Cc1ccccc1)C(=O)O; S5 = C=CCCC[C@](C)(N)C(=O)O; Nle = CCCC[C@H](N)C(=O)O; Pra = C#CC[C@H](N)C(=O)O
Note to self: values exactly at 0.9 nM are fulfilled. So MC1R IC50 at or above 0.9 nM is fulfilled, below is not fulfilled.

Determine whether this binder has MC1R IC50 no lower than 0.9 nM: XXHFRWX (Ac-Nle-[Dab-His-DPhe-Arg-Trp-Dab] Linker: succinic acid-NH2) [KR-041]
not fulfilled

Determine whether this binder has MC1R IC50 no lower than 0.9 nM: Ac-SYSMEH[NMeF]RWGKPV-NH2 [KR-022]
fulfilled

Determine whether this binder has MC1R IC50 no lower than 0.9 nM: Ac-[Nle]EHFRWGK-NH2 (SMILES CCCC[C@H](NC(C)=O)C(=O)N[C@@H](CCC(=O)O)C(=O)N[C@@H](Cc1c[nH]cn1)C(=O)N[C@@H](Cc1ccccc1)C(=O)N[C@@H](CCCNC(=N)N)C(=O)N[C@@H](Cc1c[nH]c2ccccc12)C(=O)NCC(=O)N[C@@H](CCCCN)C(N)=O) [KR-035]
not fulfilled

Determine whether this binder has MC1R IC50 no lower than 0.9 nM: Ac-EHFRWGKP-NH2 [KR-007]
fulfilled

Determine whether this binder has MC1R IC50 no lower than 0.9 nM: Ac-SYSMEHF[NMeR]WGKPV-NH2 [KR-023]
fulfilled

Determine whether this binder has MC1R IC50 no lower than 0.9 nM: Ac-[Nle][S5]H[dF]RW[S5]-NH2 (staple 2-7) [KR-039]
fulfilled

Determine whether this binder has MC1R IC50 no lower than 0.9 nM: {Acetyl(4-pyridyl)}-[Nle][Lys(N3)]H[dF]RW[Pra]-NH2 (triazole 2-7; not fully specified; printed as PyAA-Nle-[Lys(N3)-His-DPhe-Arg-Trp-Pra]-NH2) [KR-074]
not fulfilled

Determine whether this binder has MC1R IC50 no lower than 0.9 nM: Ac-[Nle][Orn(N3)]H[dF]RW[Pra]K-NH2 (triazole 2-7; not fully specified; printed as Ac-Nle-[Orn(N3)-His-DPhe-Arg-Trp-Pra]-Lys-NH2) [KR-065]
not fulfilled
